System: Fusarium graminearum
Experiment: Antifungal activity against Gibberella zeae at 200 mg/L by plate growth rate method
Format: functional
Details: read-out: GI
Consider the following compounds; for each one, report its inhibition of growth at 200 µg/mL.
Provide the reading as a plain figure in %.

Request - read-out inhibition of growth at 200 µg/mL | tested on Fusarium graminearum | compound CCn1cc(C(=O)O)c(=O)c2cc(F)c(N3CCN(C(=O)/C=C/c4ccccc4)CC3)cc21 5

Request - read-out inhibition of growth at 200 µg/mL | tested on Fusarium graminearum | compound CCn1cc(C(=O)O)c(=O)c2cc(F)c(N3CCN(C(=O)COc4ccc(OC)cc4)CC3)cc21 17

Request - read-out inhibition of growth at 200 µg/mL | tested on Fusarium graminearum | compound CCn1cc(C(=O)O)c(=O)c2cc(F)c(N3CCN(C(=O)c4c(C)oc(C)c4C)CC3)cc21 24

Request - read-out inhibition of growth at 200 µg/mL | tested on Fusarium graminearum | compound COC(=O)Nc1nc2ccccc2[nH]1 100

Request - read-out inhibition of growth at 200 µg/mL | tested on Fusarium graminearum | compound CCn1cc(C(=O)O)c(=O)c2cc(F)c(N3CCN(C(=O)c4ccccc4Br)CC3)cc21 34

Request - read-out inhibition of growth at 200 µg/mL | tested on Fusarium graminearum | compound CCn1cc(C(=O)O)c(=O)c2cc(F)c(N3CCN(C(=O)COc4ccc(Cl)cc4Cl)CC3)cc21 5

Request - read-out inhibition of growth at 200 µg/mL | tested on Fusarium graminearum | compound CCn1cc(C(=O)O)c(=O)c2cc(F)c(N3CCN(C(=O)Cc4cccc5ccccc45)CC3)cc21 12

Request - read-out inhibition of growth at 200 µg/mL | tested on Fusarium graminearum | compound CCn1cc(C(=O)O)c(=O)c2cc(F)c(N3CCN(C(=O)c4ccc(Br)o4)CC3)cc21 26

Request - read-out inhibition of growth at 200 µg/mL | tested on Fusarium graminearum | compound CCn1cc(C(=O)O)c(=O)c2cc(F)c(N3CCN(C(=O)c4cc(C)oc4C)CC3)cc21 25

Request - read-out inhibition of growth at 200 µg/mL | tested on Fusarium graminearum | compound CCn1cc(C(=O)O)c(=O)c2cc(F)c(N3CCN(C(=O)COc4ccc(Br)cc4)CC3)cc21 6

Request - read-out inhibition of growth at 200 µg/mL | tested on Fusarium graminearum | compound CCn1cc(C(=O)O)c(=O)c2cc(F)c(N3CCN(C(=O)c4ccco4)CC3)cc21 7

Request - read-out inhibition of growth at 200 µg/mL | tested on Fusarium graminearum | compound CCn1cc(C(=O)O)c(=O)c2cc(F)c(N3CCN(C(=O)COc4ccccc4)CC3)cc21 17

----------
System: Cytospora mali
Experiment: Antifungal activity against Valsa mali at 200 mg/L by plate growth rate method
Assay type: functional
Settings: read-out: GI
Measurement type: inhibition of growth at 200 µg/mL

Sample CCn1cc(C(=O)O)c(=O)c2cc(F)c(N3CCN(C(=O)COc4ccc(OC)cc4)CC3)cc21 — what was its inhibition of growth at 200 µg/mL? 10%

Sample CCn1cc(C(=O)O)c(=O)c2cc(F)c(N3CCN(C(=O)c4ccccc4O)CC3)cc21 — what was its inhibition of growth at 200 µg/mL? 17%

Sample CCn1cc(C(=O)O)c(=O)c2cc(F)c(N3CCN(C(=O)/C=C/c4ccc(Cl)cc4Cl)CC3)cc21 — what was its inhibition of growth at 200 µg/mL? 6%

Sample CCn1cc(C(=O)O)c(=O)c2cc(F)c(N3CCN(C(=O)COc4ccccc4C)CC3)cc21 — what was its inhibition of growth at 200 µg/mL? 19%

Sample CCn1cc(C(=O)O)c(=O)c2cc(F)c(N3CCN(C(=O)COc4ccc(F)cc4)CC3)cc21 — what was its inhibition of growth at 200 µg/mL? 12%

Sample CCn1cc(C(=O)O)c(=O)c2cc(F)c(N3CCN(C(=O)c4ccccc4Br)CC3)cc21 — what was its inhibition of growth at 200 µg/mL? 44%

Sample CCn1cc(C(=O)O)c(=O)c2cc(F)c(N3CCNCC3)cc21 — what was its inhibition of growth at 200 µg/mL? 27%
